Molecular target: GABA-A receptor; anion channel
Experiment: In vitro inhibition of [3H]diazepam binding to benzodiazepine receptor in rat cerebral cortical membrane
metricName: Ki

Sample answers from the record:
>  <molecule>
COc1cc2c(cc1OC)CNCC2

>  <tgt>
GABA-A receptor; anion channel

>  <metricName>
Ki

>  <experimentalValue>
> 100 µM

$$$$
>  <molecule>
CCC1NC(C(=O)OC)Cc2c1[nH]c1ccc(O)cc21 (stereo in doubt; 14a)

>  <tgt>
GABA-A receptor; anion channel

>  <metricName>
Ki

>  <experimentalValue>
> 100 µM

$$$$
>  <molecule>
CN1C=Cc2c([nH]c3ccccc23)C1

>  <tgt>
GABA-A receptor; anion channel

>  <metricName>
Ki

>  <experimentalValue>
> 100 µM

$$$$
>  <molecule>
COC(=O)C1CC2=C(C(c3ccccc3)N1)N(C)c1ccccc1C2 (stereo not drawn)

>  <tgt>
GABA-A receptor; anion channel

>  <metricName>
Ki

>  <experimentalValue>
> 100 µM

$$$$
>  <molecule>
c1ccc2cnccc2c1 [ISOQUINOLINE]

>  <tgt>
GABA-A receptor; anion channel

>  <metricName>
Ki

>  <experimentalValue>
> 100 µM

$$$$
>  <molecule>
CN(C)CCc1c[nH]c2ccccc12

>  <tgt>
GABA-A receptor; anion channel

>  <metricName>
Ki

>  <experimentalValue>
> 100 µM

$$$$

Kindly give each listed record's Ki.
1. C1=Cc2c([nH]c3ccccc23)CN1
2. Oc1cc2c(cc1O)CNCC2
3. O=C(O)C1Cc2ccccc2CN1 (stereo not drawn)
4. COC(=O)C(Cc1c[nH]c2ccccc12)N(C)C (stereo not drawn)
5. O=Cc1ccccn1 [2-PYRIDINECARBOXALDEHYDE]
6. COC(=O)C1Cc2c([nH]c3ccccc23)C(C)N1 (stereo not drawn)
7. CC(=O)c1ccccn1

1. > 100 µM
2. > 100 µM
3. > 100 µM
4. > 100 µM
5. > 100 µM
6. > 50 µM
7. > 100 µM

Kindly give each listed record's Ki.
1. COC(=O)c1cnc2ccccc2c1
2. O=C(O)c1cnc2ccccc2c1
3. O=Cc1cccnc1 [NICOTINALDEHYDE]
4. O=Cc1cnc2ccccc2c1
5. Oc1ccc2[nH]c3c(c2c1)C=CNC3

1: > 100 µM; 2: > 100 µM; 3: > 100 µM; 4: > 100 µM; 5: > 100 µM

The reported numbers originate from ChEMBL document CHEMBL1122149.
